Assay: binders of probe aFSTL3 on microarray, primary screen, stem cell growth factor project, biochemical, small-molecule microarray, fluorescence 635/667 (AID 1064);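 note: measures binding of the biotinylated anti-FSTL3 antibody to printed compounds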
Details: higher = more signal
assay.readout: composite z-score

Illustrative cases are given below, each with its answer.
molecule	composite z-score
CC(C)=NO[C@H](C)c1cn([C@H](CO)Cc2ccccc2)nn1	-0.125
CON=Cc1ccc(C(=O)N2[C@H](c3ccc(C)cc3)[C@@H](C)CC[C@H]2C(=O)OC)cc1	-0.13
COc1ccc(O[C@H]2C=C[C@@H](c3ccccc3)O[C@@H]2COC(=O)CCC(C)=NO[C@@H]2O[C@H](COC(C)=O)[C@@H](OC(C)=O)[C@H](OC(C)=O)[C@H]2OC(C)=O)cc1	-0.468
COC(=O)[C@H](C)NC(=O)CCC1CC(OC(=O)NCc2cccc3ccccc23)CC2(CCCC(COC(=O)NCC(c3ccccc3)c3ccccc3)O2)O1 (stereo partly specified)	-0.766
CCOC(=O)[C@H](CC(C)C)NC(=O)CCC1CC(OC(=O)NCc2ccc3c(c2)OCO3)CC2(CCCC(COC(=O)NCCCN3CCCC3=O)O2)O1 (stereo partly specified)	-0.303

Turning to the following molecule.
[ask] Form field: reported composite z-score of CCOC(=O)[C@H](Cc1ccccc1)NC(=O)OC1CC(CCC2CC(CC)=NO2)OC2(CCCC(COC(=O)NCCC(C)C)O2)C1 (stereo partly specified)
[reply] -0.436

###

Target: Calmodulin-1 (Homo sapiens)
Assay: calcium-bound CALM1 binders on microarrays, profiling panel, artefact control for SMM control-protein annotation, biochemical, small-molecule microarray, Cy5-labelled CALM1, plus calcium (AID 1112);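 note: score merges spot fluorescence with signal to noise from triplicate slides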
Details: Cy5-CALM1 binding fluorescence, higher = more signal
assay.readout: composite z-score
Just the number.

Illustrative cases are given below, each with its answer.
molecule	composite z-score
O=C1[C@H]2[C@H]3[C@H](O)[C@H](O)CC(=NO[C@@H]4O[C@H](CO)[C@@H](O)[C@H](O)[C@H]4O)[C@H]3CC[C@H]2C(=O)N1c1cccc(Oc2ccccc2)c1	-0.474
CO[C@H]1COC(=O)[C@H](C)NC(=O)CC=C[C@@H](C)[C@H](OC)COC(=O)[C@@H](OCc2ccccc2)C=C[C@@H]1C	-1.32

[ask] Form field: reported composite z-score of `CO[C@H]1COC(=O)CC=C[C@H](C)[C@@H](OC)COC(=O)[C@@H](C)NC(=O)CC=C[C@@H]1C`
[reply] -1.55

[ask] Form field: reported composite z-score of `O=C(NN=C1C[C@@H](O)[C@@H](O)[C@@H]2[C@@H]3C(=O)N(C[C@@H]4CCCO4)C(=O)[C@@H]3CC[C@H]12)OCc1ccccc1`
[reply] 0.226

[ask] Form field: reported composite z-score of `CC(C)=CCCC(C)=CCON=C1C[C@@H](O)[C@@H](O)[C@@H]2[C@@H]3C(=O)N(c4ccc(F)cc4F)C(=O)[C@@H]3CC[C@H]12`
[reply] -0.778

[ask] Form field: reported composite z-score of CCC1=NOC(CCC2CC(OC(=O)NCc3cccc4c3OCO4)CC3(CCCC(COC(=O)NCCc4ccccc4OC)O3)O2)C1 (stereo not given)
[reply] 0.712

[ask] Form field: reported composite z-score of `CC(C)CON=C1C[C@@H](O)[C@@H](O)[C@@H]2[C@@H]3C(=O)N(C4CCCCC4)C(=O)[C@@H]3CC[C@@H]12`
[reply] -0.558

[ask] Form field: reported composite z-score of `COC(=O)CC=C[C@@H](C)[C@@H](C=NO[C@@H](C)c1cn([C@H](CO)Cc2ccccc2)nn1)OC`
[reply] -1.48

[ask] Form field: reported composite z-score of `CCC(=O)[C@@]1(O)C(=O)N2C(=C3C(=O)OCC[C@@H]31)N(Cc1ccccc1)C(C)=C(C(=O)OC)[C@H]2c1ccccc1`
[reply] -0.478

[ask] Form field: reported composite z-score of `CC(CCN1CCCCc2nc(C)c(C)cc21)=NOC[C@@H](O)COCc1ccco1`
[reply] -1.81
